Exercise: for every item that follows, state its recorded Flk Kinase % Inhibition (P.110).
system: FLK-1 receptor; assay: FLK-1 Assay (cellular/catalytic ELISA, VEGF-stimulated phosphotyrosine); format: cell-based; parameters: concentration or dose not given beside the values; details: protocol P.110
Give bare numbers, in %.

Below, each entry is followed by its recorded Flk Kinase % Inhibition (P.110) result.
>>> measured_result("Cc1ccc(C=C2C(=O)Nc3c(Br)cc(Br)c(C)c32)cc1 [10736/H05]")
16.3
>>> measured_result("O=C1Nc2ccc(S(=O)(=O)Nc3ccc(C(F)(F)F)cc3)cc2C1=Cc1cccc(O)c1O [10738/E06]")
10.1

Next:
Prompt: So what's the measured Flk Kinase % Inhibition (P.110) for this one? O=C1Nc2ccc(S(=O)(=O)Nc3ccc(C(F)(F)F)cc3)cc2C1=Cc1ccc2ccccc2c1 [10737/E08]
Completion: 21.3

----------
system: FLK-1 receptor; test: FLK-1 Assay (cellular/catalytic ELISA, VEGF-stimulated phosphotyrosine); type: cell-based; design: concentration or dose not given beside the values
VALUE KIND: Flk Kinase % Inhibition (P.110) (%)
One number for each entry, in %.

>>> measured_result("Cc1c(Br)cc(Br)c2c1C(=Cc1cc(Cl)cc(Br)c1O)C(=O)N2")
1.8

Hello, I would appreciate it if you could give Flk Kinase % Inhibition (P.110) for each entry below.
1. Cc1c(Br)cc(Br)c2c1C(=Cc1ccccc1O)C(=O)N2
2. Cc1c(Br)cc(Br)c2c1C(=Cc1ccc([N+](=O)[O-])o1)C(=O)N2
3. CNS(=O)(=O)c1ccc2c(c1)C(=Cc1ccc(C)cc1)C(=O)N2
4. CNS(=O)(=O)c1ccc2c(c1)C(=Cc1ccc(Br)s1)C(=O)N2
5. COc1cc(Br)c(O)c(C=C2C(=O)Nc3c(Br)cc(Br)c(C)c32)c1

Completion:
−12.3
13.0
15.2
9.8
−5.0

----------
target: Met receptor (EGFR/Met chimeric cells, EMR) (Homo sapiens); construct: expressed in transfected cells; the other entry of the earlier key: EGFR (P00533, Epidermal growth factor receptor); experiment: Met Autophosphorylation Assay; type: biochemical
Please respond with reported Met Kinase % Inhibition (P.130) for every item in the list.
Don't forget the unit after the value.

Past entries and their recorded results:
>>> measured_result("O=C1Nc2ccc(S(=O)(=O)N3CCOCC3)cc2C1=Cc1cccc(F)c1")
"10.7%"
>>> measured_result("Cc1ccc(C=C2C(=O)Nc3ccc(S(=O)(=O)N4CCOCC4)cc32)cc1")
"19.8%"
>>> measured_result("Cc1c(Br)cc(Br)c2c1C(=Cc1cccc(Oc3ccccc3)c1)C(=O)N2")
"28.4%"
>>> measured_result("O=C1Nc2ccc(CCCl)cc2C1=Cc1cccc2ccccc12")
"16.8%"
>>> measured_result("Cc1ccccc1C=C1C(=O)Nc2c(Br)cc(Br)cc21")
"26.9%"

The following molecules each have a reported value; give each one's Met Kinase % Inhibition (P.130).
1. CNS(=O)(=O)c1ccc2c(c1)C(=Cc1cc(Br)cc(Br)c1O)C(=O)N2
2. Cc1c(Br)cc(Br)c2c1C(=Cc1csc([N+](=O)[O-])c1)C(=O)N2
3. Cc1ccccc1C=C1C(=O)Nc2c(Br)cc(Br)c(C)c21
4. Cc1ccc2occ(C=C3C(=O)Nc4c(Br)cc(Br)c(C)c43)c(=O)c2c1
5. O=C1Nc2ccc(I)cc2C1=Cc1ccc(-c2ccccc2)cc1

Completion:
92.0%
67.6%
29.2%
17.2%
69.0%

List the reported Met Kinase % Inhibition (P.130) of each molecule below.
1. Cc1c(Br)ccc2c1C(=Cc1ccccc1Cl)C(=O)N2
2. Cc1cccc(C=C2C(=O)Nc3ccc(I)cc32)c1
3. COc1ccc(O)c(C=C2C(=O)Nc3c(Br)cc(Br)c(C)c32)c1
4. Cc1c(Br)cc(Br)c2c1C(=Cc1cccc([N+](=O)[O-])c1)C(=O)N2
5. Cc1c(Br)cc(Br)c2c1C(=Cc1cccs1)C(=O)N2
6. COc1cccc(O)c1C=C1C(=O)Nc2c(Br)cc(Br)c(C)c21

Completion:
["11.0%", "65.5%", "48.2%", "−5.7%", "18.3%", "52.3%"]

----------
biological target: Met receptor (EGFR/Met chimeric cells, EMR) (Homo sapiens, UniProt P08581); construct: expressed in transfected cells; the other entry of the earlier key: EGFR (P00533, Epidermal growth factor receptor); test: Met Autophosphorylation Assay; assay type: biochemical; conditions: protocol P.130
Sequence (P08581 with tags, fused parts or gaps): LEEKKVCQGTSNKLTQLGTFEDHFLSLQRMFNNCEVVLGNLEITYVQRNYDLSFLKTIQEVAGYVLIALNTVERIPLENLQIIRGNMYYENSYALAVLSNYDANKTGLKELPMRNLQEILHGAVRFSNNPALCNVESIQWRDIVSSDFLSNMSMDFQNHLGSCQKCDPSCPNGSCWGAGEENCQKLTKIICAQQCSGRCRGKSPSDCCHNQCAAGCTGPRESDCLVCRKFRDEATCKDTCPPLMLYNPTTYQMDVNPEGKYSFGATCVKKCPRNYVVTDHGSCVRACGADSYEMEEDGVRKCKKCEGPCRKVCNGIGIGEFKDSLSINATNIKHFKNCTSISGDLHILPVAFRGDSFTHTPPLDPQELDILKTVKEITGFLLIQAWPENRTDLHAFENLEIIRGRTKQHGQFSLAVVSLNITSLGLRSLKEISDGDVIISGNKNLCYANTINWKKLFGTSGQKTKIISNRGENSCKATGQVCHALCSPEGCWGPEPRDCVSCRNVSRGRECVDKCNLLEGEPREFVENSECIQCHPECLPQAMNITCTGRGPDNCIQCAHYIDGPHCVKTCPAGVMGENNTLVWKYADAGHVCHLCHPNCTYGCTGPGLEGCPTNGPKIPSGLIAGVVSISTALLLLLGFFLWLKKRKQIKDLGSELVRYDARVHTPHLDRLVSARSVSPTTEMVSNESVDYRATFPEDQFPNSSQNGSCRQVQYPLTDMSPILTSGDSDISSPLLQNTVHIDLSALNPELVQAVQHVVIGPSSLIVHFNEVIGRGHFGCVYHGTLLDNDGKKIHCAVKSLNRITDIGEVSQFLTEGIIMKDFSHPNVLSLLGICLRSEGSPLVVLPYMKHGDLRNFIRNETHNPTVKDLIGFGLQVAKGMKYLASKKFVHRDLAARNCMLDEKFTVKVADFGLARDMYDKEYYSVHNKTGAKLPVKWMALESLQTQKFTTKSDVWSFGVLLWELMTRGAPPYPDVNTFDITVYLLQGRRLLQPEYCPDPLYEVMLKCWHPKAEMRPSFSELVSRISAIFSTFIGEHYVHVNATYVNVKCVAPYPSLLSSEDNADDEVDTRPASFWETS
VALUE KIND: Met Kinase % Inhibition (P.130)

Example results:
>>> measured_result("Cc1c(Br)cc(Br)c2c1C(=Cc1ccoc1)C(=O)N2")
"62.4%"
>>> measured_result("O=C1Nc2ccc(I)cc2C1=Cc1ccc2ccccc2n1")
"68.9%"

Batch of 4 compounds: report Met Kinase % Inhibition (P.130) for each.
1. O=C1Nc2ccc(S(=O)(=O)N3CCOCC3)cc2C1=Cc1ccc(O)cc1Cl
2. CNS(=O)(=O)c1ccc2c(c1)C(=Cc1ccc3ccccc3n1)C(=O)N2
3. Cc1c(Br)ccc2c1C(=Cc1cccc(F)c1F)C(=O)N2
4. Cn1cc(C=C2C(=O)Nc3ccc(S(=O)(=O)Nc4ccc(C(F)(F)F)cc4)cc32)c2ccccc21

Completion:
["56.3%", "41.8%", "81.8%", "19.7%"]

----------
molecular target: EGFR (Homo sapiens); construct: endogenous in cells; host or cells: A431 cells (lysate, captured with SUMO1 anti-EGFR antibody); assay: Biochemical EGFR Assay; design: concentration or dose not given beside the values
Sequence (P00533 25-1210): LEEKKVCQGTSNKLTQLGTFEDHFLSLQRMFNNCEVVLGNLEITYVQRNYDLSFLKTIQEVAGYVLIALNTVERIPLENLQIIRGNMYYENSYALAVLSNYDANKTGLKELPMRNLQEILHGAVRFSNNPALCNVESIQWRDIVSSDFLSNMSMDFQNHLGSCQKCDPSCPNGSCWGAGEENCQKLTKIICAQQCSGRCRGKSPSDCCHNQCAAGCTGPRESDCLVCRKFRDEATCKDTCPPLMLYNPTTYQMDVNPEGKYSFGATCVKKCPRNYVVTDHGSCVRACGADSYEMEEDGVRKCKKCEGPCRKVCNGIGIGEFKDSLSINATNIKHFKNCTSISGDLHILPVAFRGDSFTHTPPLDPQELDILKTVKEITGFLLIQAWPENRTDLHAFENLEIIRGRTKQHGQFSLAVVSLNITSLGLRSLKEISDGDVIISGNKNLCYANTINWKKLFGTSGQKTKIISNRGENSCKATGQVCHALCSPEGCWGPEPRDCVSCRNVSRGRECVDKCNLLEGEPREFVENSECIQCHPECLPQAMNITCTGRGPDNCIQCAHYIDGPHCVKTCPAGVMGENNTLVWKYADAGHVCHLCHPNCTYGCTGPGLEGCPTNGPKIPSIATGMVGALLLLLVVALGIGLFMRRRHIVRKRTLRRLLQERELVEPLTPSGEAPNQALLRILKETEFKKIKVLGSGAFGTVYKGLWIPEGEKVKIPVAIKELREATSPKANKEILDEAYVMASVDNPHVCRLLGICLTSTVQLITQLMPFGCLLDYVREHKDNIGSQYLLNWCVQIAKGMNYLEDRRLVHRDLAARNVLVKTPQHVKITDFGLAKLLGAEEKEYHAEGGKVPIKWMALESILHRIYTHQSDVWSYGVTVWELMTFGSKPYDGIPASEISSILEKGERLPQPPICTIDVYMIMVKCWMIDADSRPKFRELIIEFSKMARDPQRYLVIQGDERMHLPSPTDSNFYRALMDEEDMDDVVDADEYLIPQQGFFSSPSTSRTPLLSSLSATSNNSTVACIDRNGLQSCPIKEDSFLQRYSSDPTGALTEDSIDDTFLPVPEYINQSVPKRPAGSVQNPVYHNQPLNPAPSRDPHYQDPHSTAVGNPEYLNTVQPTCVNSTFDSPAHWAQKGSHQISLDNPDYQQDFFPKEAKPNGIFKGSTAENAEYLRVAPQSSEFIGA
Assignment: determine reported Biochem EGFR % Inhibition (P.167) for the given compounds.
Give bare numbers, in %.

Worked cases, Biochem EGFR % Inhibition (P.167) given:
>>> measured_result("Cc1c(Br)cc(Br)c2c1C(=Cc1ccc(F)c(F)c1)C(=O)N2")
"−1.0"
>>> measured_result("Cc1c(Br)cc(Br)c2c1C(=Cc1cc(Br)ccc1O)C(=O)N2")
"−3.1"
>>> measured_result("Cc1ccccc1C=C1C(=O)Nc2ccc(S(=O)(=O)Nc3ccc(C(F)(F)F)cc3)cc21")
16.7
>>> measured_result("COc1cccc(C=C2C(=O)Nc3c(Br)cc(Br)c(C)c32)c1O")
6.3
>>> measured_result("Cc1c(Br)cc(Br)c2c1C(=Cc1ccc(Cl)c([N+](=O)[O-])c1)C(=O)N2")
"−2.5"
>>> measured_result("Cc1c(Br)cc(Br)c2c1C(=Cc1ccc(Cl)cc1Cl)C(=O)N2")
"−16.3"
>>> measured_result("CCOc1cccc(C=C2C(=O)Nc3ccc(Br)c(C)c32)c1O")
"−6.7"
>>> measured_result("COc1cccc(C=C2C(=O)Nc3ccc(S(=O)(=O)Nc4ccc(C(F)(F)F)cc4)cc32)c1")
"−24.0"

The following compounds each have a reported value; give each one's Biochem EGFR % Inhibition (P.167).
1. CCOc1cccc(C=C2C(=O)Nc3ccc(S(=O)(=O)N4CCOCC4)cc32)c1O
2. Cc1c(Br)cc(Br)c2c1C(=Cc1nc3ccccc3n1C)C(=O)N2

Completion:
1: 0.7; 2: 20.1

----------
tested on: FLK-1 receptor; assay: FLK-1 Assay (cellular/catalytic ELISA, VEGF-stimulated phosphotyrosine); assay type: cell-based; parameters: concentration or dose not given beside the values; conditions: protocol P.110
Answer each item with its documented Flk Kinase % Inhibition (P.110).

>>> measured_result("CCc1ccc(C=C2C(=O)Nc3c(Br)cc(Br)c(C)c32)cc1")
"13.2%"
>>> measured_result("COc1ccc(C=C2C(=O)Nc3ccc(S(=O)(=O)N4CCOCC4)cc32)cc1C")
"25.5%"

Prompt: For the record O=C1Nc2ccc(I)cc2C1=CC1COc2ccccc2O1 (stereo not drawn) , what value of Flk Kinase % Inhibition (P.110) is listed for FLK-1 receptor?
Completion: 4.1%

----------
target: Met receptor (EGFR/Met chimeric cells, EMR) (Homo sapiens, UniProt P08581); construct: expressed in transfected cells; the other entry of the earlier key: EGFR (P00533, Epidermal growth factor receptor); assay: Met Autophosphorylation Assay; assay type: biochemical
So basically every entry gets a class from its Met Kinase % Inhibition (P.130), ranges being low range (below 30%), mid range (30% to below 50%), high range (50% or more)

Some solved entries appear below for comparison.
>>> group("COc1cccc(C=C2C(=O)Nc3ccc(I)cc32)c1")
"high range"
>>> group("Cc1ccccc1C=C1C(=O)Nc2ccc(I)cc21")
"high range"
>>> group("Cc1c(Br)ccc2c1C(=Cc1ccc(F)c(F)c1)C(=O)N2")
"high range"
>>> group("O=C1Nc2c(Br)cc(Br)cc2C1=Cc1cccc(C(F)(F)F)c1")
"mid range"

Prompt: Lab note: sort COc1c(Br)cc(C=C2C(=O)Nc3c(Br)cc(Br)c(C)c32)cc1C(C)(C)C into the matching Met Kinase % Inhibition (P.130) band.
Completion: low range

Prompt: Further, for O=C1Nc2c(Br)cc(Br)cc2C1=Cc1cc(C(F)(F)F)cc(C(F)(F)F)c1 ?
Completion: high range

Prompt: And for Cc1c(Br)cc(Br)c2c1C(=Cc1ccc(O)cc1O)C(=O)N2 ?
Completion: high range

Prompt: Lookup O=C1Nc2ccc(S(=O)(=O)Nc3ccc(C(F)(F)F)cc3)cc2C1=Cc1cccc(Cl)c1
Completion: high range

Prompt: // repeat for Cc1c(Br)cc(Br)c2c1C(=Cc1ccccc1Sc1ccc(Cl)cc1)C(=O)N2 and report
Completion: low range
